The reported numbers originate from patent US20030139431A1.

Molecular target: hNPFF2 (Homo sapiens)
Sequence (Q9Y5X5 103-522): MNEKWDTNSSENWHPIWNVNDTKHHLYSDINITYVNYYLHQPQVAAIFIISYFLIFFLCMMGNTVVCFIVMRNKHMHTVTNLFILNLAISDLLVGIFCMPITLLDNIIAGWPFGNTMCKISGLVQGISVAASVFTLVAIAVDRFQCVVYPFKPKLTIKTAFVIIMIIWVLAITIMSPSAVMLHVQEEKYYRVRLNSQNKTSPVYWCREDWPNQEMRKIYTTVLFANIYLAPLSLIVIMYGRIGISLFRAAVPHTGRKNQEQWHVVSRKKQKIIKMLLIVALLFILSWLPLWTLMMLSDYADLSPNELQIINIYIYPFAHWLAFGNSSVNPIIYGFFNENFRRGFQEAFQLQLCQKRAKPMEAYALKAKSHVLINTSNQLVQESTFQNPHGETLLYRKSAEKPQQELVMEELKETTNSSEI
Experiment: Functional assay (agonist potency, intrinsic activity) at cloned human NPFF2 receptor
Details: recombinant human NPFF2
pEC50: −log10 of the molar value.
measurement_kind: pEC50

As a guide, the following entries are already answered.
| compound | experimental_value |
| --- | --- |
| CCc1ccc2nc(NC(=N)N)cc(C)c2c1 [Compound 4002] | 6.50 |
| CCCCCc1ccc2nc(NC(=N)N)nc(C)c2c1 [Compound 2001] | 6.20 |
| CCCCCCc1ccc2nc(NC(=N)N)cc(C)c2c1 [Compound 5003] | 5.50 |

(a) Cc1nc(NC(=N)N)nc2cc(-c3ccccc3)ccc12 [Compound 1023]
(b) CCCCCc1ccc2nc(NC(=N)N)cc(C)c2c1 [Compound 5002]
q: Two entries are listed, a and b . Which one carries the higher pEC50? Your choice should be expressed through its label.
a: b
(b: 5.77, a: 5.39)

###

Molecular target: hNPFF2 (Homo sapiens)
Experiment: Binding affinity at cloned recombinant human NPFF2 receptor
measurement_kind: Ki (µM)

Check out these entries, answers already filled in.
| test_smiles | Ki, µM |
| --- | --- |
| Cc1cc(NC(=N)N)nc2c(C)cccc12 | 0.952 |
| Cc1ccc2c(C)cc(NC(=N)N)nc2c1 | 0.091 |

(a) Cc1cc(NC(=N)N)nc2ccc(Cl)cc12
(b) Cc1cc(C)c2c(C)cc(NC(=N)N)nc2c1
(c) Cc1nc(NC(=N)N)nc2cc(-c3ccccc3)ccc12
(d) CCCCCCc1ccc2nc(NC(=N)N)cc(C)c2c1
q: # desc sort on Ki across 4 molecules Write out the labels following the order that was asked for.
a: c, d, b, a
(c: 2.92 µM, d: 1.17 µM, b: 0.514 µM, a: 0.123 µM)

(P) CCCCCc1ccc2nc(NC(=N)N)nc(C)c2c1
(Q) COc1ccc2nc(NC(=N)N)cc(C)c2c1
q: Compare reported Ki values for P and Q . Which is lower? Response format: the label of the selected entry.
a: P

###

Molecular target: rNPFF1 (Rattus norvegicus, UniProt Q9EP86)
Sequence (Q9EP86 whole entry): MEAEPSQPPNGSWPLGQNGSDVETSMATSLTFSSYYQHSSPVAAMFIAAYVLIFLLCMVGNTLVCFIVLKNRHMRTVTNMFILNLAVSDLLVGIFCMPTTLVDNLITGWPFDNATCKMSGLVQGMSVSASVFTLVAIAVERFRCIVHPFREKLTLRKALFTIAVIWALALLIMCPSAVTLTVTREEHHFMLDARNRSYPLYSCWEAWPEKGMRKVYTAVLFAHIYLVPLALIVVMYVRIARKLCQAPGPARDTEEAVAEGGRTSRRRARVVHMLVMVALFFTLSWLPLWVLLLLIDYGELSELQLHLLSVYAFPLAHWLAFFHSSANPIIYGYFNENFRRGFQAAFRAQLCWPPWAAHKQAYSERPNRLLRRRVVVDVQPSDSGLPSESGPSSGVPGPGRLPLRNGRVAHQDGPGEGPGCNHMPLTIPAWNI
Experiment: Binding affinity at cloned recombinant rat NPFF1 receptor
pKi: −log10 of the molar value.
measurement_kind: pKi

| molecule | assayed_system | pKi |
| --- | --- | --- |
| CCc1ccc2c(C)nc(NC(=N)N)nc2c1 [Compound 1020] | rNPFF1 (Rattus norvegicus, UniProt Q9EP86) | 7.74 |
| Cc1cc(C)c2c(C)cc(NC(=N)N)nc2c1 [Compound 4008] | rNPFF1 (Rattus norvegicus, UniProt Q9EP86) | 7.19 |
| COc1cc2c(C)nc(NC(=N)N)nc2cc1C [Compound 1016] | rNPFF1 (Rattus norvegicus, UniProt Q9EP86) | 6.25 |

(P) Cc1nc(NC(=N)N)nc2cc(Br)ccc12 [Compound 1014]
(Q) Cc1nc(NC(=N)N)nc2ccc(OC(F)(F)F)cc12 [Compound 1030]
(R) Cc1nc(NC(=N)N)nc2cc(-c3ccccc3)ccc12 [Compound 1023]
(S) CCCCCCc1ccc2nc(NC(=N)N)nc(C)c2c1 [Compound 2005]
q: Rank by pKi (largest to smallest). # respond with the labels, arranged in the requested order
a: R, S, Q, P
(R: 8.40, S: 7.06, Q: 6.75, P: 6.52)

(a) Cc1ccc(Oc2ccc3nc(NC(=N)N)nc(C)c3c2)cc1 [Compound 1033]
(b) COc1ccc2nc(NC(=N)N)nc(C)c2c1 [Compound 1011]
q: Hey, between a and b which has a smaller measured pKi? Answer by quoting the chosen item's label.
a: a

(I) CCCCOc1cc2nc(NC(=N)N)nc(C)c2cc1OCCCC [Compound 1018]
(II) Cc1cc(NC(=N)N)nc2ccc3ccccc3c12 [Compound 4009]
q: Exercise: compare I and II ; which one has the greater pKi? Give the chosen item's label as your response.
a: II
(II: 6.82, I: 6.52)

(a) Cc1nc(NC(=N)N)nc2cc(OCc3ccccc3)ccc12 [Compound 1006]
(b) Cc1nc(NC(=N)N)nc2ccc(CCCC(C)O)cc12 (stereo not drawn) [Compound 1034]
q: Record comparison, field pKi: mark the lower of a and b . Response format: the label of the selected entry.
a: a

###

Molecular target: rNPFF2 (Rattus norvegicus, UniProt Q9EQD2)
Sequence (Q9EQD2 whole entry): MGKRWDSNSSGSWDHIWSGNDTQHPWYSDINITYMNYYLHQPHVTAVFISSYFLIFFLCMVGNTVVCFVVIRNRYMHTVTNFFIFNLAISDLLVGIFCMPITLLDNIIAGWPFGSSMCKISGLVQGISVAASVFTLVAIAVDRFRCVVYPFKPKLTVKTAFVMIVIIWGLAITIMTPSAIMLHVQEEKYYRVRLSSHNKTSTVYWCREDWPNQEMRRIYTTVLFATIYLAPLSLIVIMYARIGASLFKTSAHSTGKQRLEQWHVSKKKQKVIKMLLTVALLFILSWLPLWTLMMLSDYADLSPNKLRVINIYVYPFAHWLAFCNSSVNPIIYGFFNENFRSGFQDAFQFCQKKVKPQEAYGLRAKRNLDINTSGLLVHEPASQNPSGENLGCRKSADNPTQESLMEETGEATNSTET
Experiment: Binding affinity at cloned recombinant rat NPFF2 receptor
measurement_kind: Ki (nM)

Would you please look over these solved cases?
| compound | measurement_kind | experimental_value |
| --- | --- | --- |
| Cc1nc(NC(=N)N)nc2ccc(OC(F)(F)F)cc12 [Compound 1030] | Ki | 4860 |
| Cc1nc(NC(=N)N)nc2ccc(Oc3ccccc3)cc12 [Compound 1032] | Ki | 1640 |
| Cc1nc(NC(=N)N)nc2ccc(C(C)(C)C)cc12 [Compound 1004] | Ki | 1490 |

(a) CCCCCCCCc1ccc2nc(NC(=N)N)nc(C)c2c1 [Compound 1009]
(b) Cc1nc(NC(=N)N)nc2ccc(OCCCCCOc3ccccc3)cc12 [Compound 1005]
q: Of a and b , which shows the smaller Ki value? State your choice using its label.
a: a
(a: 703 nM, b: 2140 nM)

###

Molecular target: rNPFF1 (Rattus norvegicus)
Test: Functional assay (agonist potency, intrinsic activity) at cloned rat NPFF1 receptor
Conditions: recombinant rat NPFF1
Experimental: Intrinsic activity of a compound is measured as the percent of maximum response.
measurement_kind: EC50 (nM)

(P) CCCCCCCc1ccc2nc(NC(=N)N)nc(C)c2c1
(Q) Cc1nc(NC(=N)N)nc2cc(C(C)(C)C)ccc12
(R) CCCCc1ccc2nc(NC(=N)N)nc(C)c2c1
q: Can you order these entries from above by EC50? Start with the largest number and work down. To answer, arrange all of the labels according to the requested order.
a: Q, P, R
(Q: 3160 nM, P: 886 nM, R: 194 nM)

###

Biological target: rNPFF1 (Rattus norvegicus)
Experiment: Functional assay (agonist potency, intrinsic activity) at cloned rat NPFF1 receptor
Conditions: recombinant rat NPFF1
pEC50: −log10 of the molar value.
measurement_kind: pEC50

| compound | pEC50 |
| --- | --- |
| CCC(C)c1ccc2nc(NC(=N)N)nc(C)c2c1 (stereo not shown) | 6.60 |
| CCc1cc(NC(=N)N)nc2cc(C)ccc12 | < 5.00 |
| Cc1nc(NC(=N)N)nc2cc(Br)ccc12 | < 5.00 |

q: Which pEC50 value belongs to COc1cc2c(C)nc(NC(=N)N)nc2cc1C ?
a: < 5.00

###

Biological target: rNPFF2 (Rattus norvegicus, UniProt Q9EQD2)
Test: Functional assay (agonist potency, intrinsic activity) at cloned rat NPFF2 receptor
Details: recombinant rat NPFF2
pEC50: −log10 of the molar value.
measurement_kind: pEC50

Reference set, count: 2
| test_smiles | pEC50 |
| --- | --- |
| CCCCCc1ccc2nc(NC(=N)N)cc(C)c2c1 | 6.59 |
| CCc1ccc2nc(NC(=N)N)cc(C)c2c1 | 6.90 |

(A) Cc1nc(NC(=N)N)nc2cc(C(C)(C)C)ccc12
(B) Cc1nc(NC(=N)N)nc2ccc(OC(F)(F)F)cc12
q: Of A versus B , which is the one with smaller reported pEC50? Selection: enter the item's label.
a: B
(B: 6.20, A: 6.72)

###

Target: UniProtKB Q9EQD2
Assay: Binding affinity at cloned recombinant rat NPFF2 receptor
measurement_kind: Ki (µM)

| molecule | units_symbol | Ki |
| --- | --- | --- |
| CCCCCCCc1ccc2nc(NC(=N)N)nc(C)c2c1 | µM | 3.67 |
| Cc1nc(NC(=N)N)nc2ccc(Cl)cc12 | µM | 2.02 |
| Cc1nc(NC(=N)N)nc2ccc(C3CCCCC3)cc12 | µM | 1.2 |
| CCCc1ccc2nc(NC(=N)N)nc(C)c2c1 | µM | 1.12 |
| Cc1nc(NC(=N)N)nc2cc(-c3ccccc3)ccc12 | µM | 1.02 |

(A) Cc1nc(NC(=N)N)nc2ccc(CCCC(C)O)cc12 (stereo not shown)
(B) COc1ccc2nc(NC(=N)N)cc(C)c2c1
(C) Cc1cc(C)c2c(C)cc(NC(=N)N)nc2c1
q: Please give the order of these molecules when sorted by Ki, largest value leading. // respond by listing labels in the order requested
a: B, A, C

(I) Cc1nc(NC(=N)N)nc2cc(F)c(F)cc12
(II) Cc1cc(NC(=N)N)nc2cc(F)ccc12
q: Pick one: I or II . Which one has the lower reported Ki? Label of pick, please.
a: II
(II: 0.619 µM, I: 2.87 µM)

###

Target: rNPFF2 (Rattus norvegicus, UniProt Q9EQD2)
Test: Binding affinity at cloned recombinant rat NPFF2 receptor
measurement_kind: Ki (nM)

| compound | Ki, nM |
| --- | --- |
| CCCCOc1ccc2nc(NC(=N)N)nc(C)c2c1 | 4850 |
| CCOc1ccc2c(C)nc(NC(=N)N)nc2c1 | 5590 |
| CCc1cc(NC(=N)N)nc2cc(C)ccc12 | 203 |
| Cc1cc2nc(NC(=N)N)nc(C)c2cc1C | 1110 |
| CCCCCc1ccc2nc(NC(=N)N)nc(C)c2c1 | 221 |

(I) Cc1cc(NC(=N)N)nc2ccccc12
(II) Cc1nc(NC(=N)N)nc2ccc3ccccc3c12
q: # returns the entry with the larger Ki; inputs I and II State the label of the item chosen.
a: II
(II: 699 nM, I: 433 nM)

(a) CCC(C)c1ccc2nc(NC(=N)N)nc(C)c2c1 (stereo not shown)
(b) Cc1cc(NC(=N)N)nc2ccc3ccccc3c12
(c) CCCCCCc1ccc2nc(NC(=N)N)nc(C)c2c1
q: Descending sort on Ki required. Form entry: labels listed in requested order.
a: b, a, c
